TARGET OR SYSTEM: TXK (Homo sapiens, UniProt P42681)
Sequence (P42681 whole entry, species assumed): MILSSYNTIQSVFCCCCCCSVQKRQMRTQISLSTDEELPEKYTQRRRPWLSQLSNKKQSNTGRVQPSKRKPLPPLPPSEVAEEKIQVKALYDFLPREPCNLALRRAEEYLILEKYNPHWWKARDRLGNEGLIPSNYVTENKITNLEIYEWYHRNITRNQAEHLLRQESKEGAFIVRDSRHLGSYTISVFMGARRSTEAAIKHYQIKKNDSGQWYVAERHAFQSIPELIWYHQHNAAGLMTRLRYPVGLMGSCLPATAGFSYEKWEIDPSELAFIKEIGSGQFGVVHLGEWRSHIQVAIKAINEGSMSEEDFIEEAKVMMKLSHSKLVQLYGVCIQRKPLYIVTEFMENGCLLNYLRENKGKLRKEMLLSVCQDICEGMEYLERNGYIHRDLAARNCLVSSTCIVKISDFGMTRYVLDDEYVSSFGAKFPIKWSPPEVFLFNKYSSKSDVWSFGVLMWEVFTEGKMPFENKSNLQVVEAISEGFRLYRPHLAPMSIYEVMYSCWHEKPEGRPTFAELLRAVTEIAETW
PROTOCOL SUMMARY: Kinase screening assays
pIC50: −log10 of the molar value.
PARAMETER: pIC50

I would be grateful if you could share the reported pIC50 for C=CC(=O)N1CCC[C@@H](n2c(=O)n(-c3ccc(Oc4ccccc4)cc3)c3c(N)nccc32)C1 [Tolebrutinib] .
≥ 8.40

---

Protein target, amino acids: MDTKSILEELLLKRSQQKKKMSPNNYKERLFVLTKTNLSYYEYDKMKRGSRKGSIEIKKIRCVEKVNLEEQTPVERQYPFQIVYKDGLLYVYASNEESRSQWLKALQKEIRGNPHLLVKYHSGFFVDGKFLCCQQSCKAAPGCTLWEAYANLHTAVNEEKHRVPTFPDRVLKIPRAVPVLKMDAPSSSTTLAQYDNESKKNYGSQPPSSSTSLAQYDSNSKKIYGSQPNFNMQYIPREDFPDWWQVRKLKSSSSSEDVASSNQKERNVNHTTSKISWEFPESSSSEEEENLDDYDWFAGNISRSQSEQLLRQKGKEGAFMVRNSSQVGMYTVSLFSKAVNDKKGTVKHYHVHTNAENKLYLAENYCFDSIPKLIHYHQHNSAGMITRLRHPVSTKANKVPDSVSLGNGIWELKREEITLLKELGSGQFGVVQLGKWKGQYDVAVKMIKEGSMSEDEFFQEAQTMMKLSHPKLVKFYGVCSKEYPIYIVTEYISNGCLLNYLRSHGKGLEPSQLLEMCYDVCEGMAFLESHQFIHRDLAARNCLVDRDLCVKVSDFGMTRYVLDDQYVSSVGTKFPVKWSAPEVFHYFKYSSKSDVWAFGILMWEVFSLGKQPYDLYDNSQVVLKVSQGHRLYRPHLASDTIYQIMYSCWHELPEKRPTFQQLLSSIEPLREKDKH
pIC50: −log10 of the molar value.
PARAMETER: pIC50

What does the data say about its pIC50? Entry: C=CC(=O)N1CCC[C@@H](n2c(=O)n(-c3ccc(Oc4ccccc4)cc3)c3c(N)nccc32)C1
≥ 8.40

Source listed as paper PMC11315827.
